The origin of these recorded values is ChEMBL document CHEMBL1123173.

Measured log10(IC50) by item
tested on: Vero; test: In vitro antiviral activity was measured against HSV-1 (F delta 305) in Vero cells; assay type: functional; settings: Chlorocebus sabaeus, read-out: ID50 (the source's name)
In our notation, the value equals log10 of IC50 in µM.

Query block: Which log10(IC50) value belongs to Nc1nc(N)c2ncn(COC3COP(=O)(O)OC3)c2n1 (stereo unspecified) ?
Result block: 1.90

Query block: Similarly, Nc1nc2c(ncn2COC2COP(=O)(O)OC2)c(=O)[nH]1 (stereo unspecified) ?
Result block: -0.30

Query block: Similarly, Nc1nc(O)c2ncn(COC(COP(=O)(O)O)COP(=O)(O)O)c2n1 ?
Result block: 1.11

More entries:
Query block: Which log10(IC50) value belongs to Nc1nc(O)c2ncn(COC(CO)CCP(=O)(O)O)c2n1 (stereo unspecified) ?
Result block: 1.70

Query block: Similarly, Nc1nc2c(ncn2COC(CO)CO)c(=O)[nH]1 [GANCICLOVIR] ?
Result block: 1.00

Query block: Similarly, Nc1nc(O)c2ncn(COC(CO)COP(=O)(O)O)c2n1 (stereo unspecified) ?
Result block: 0.78

###

Measured p-value for mean survival time increase by item
system: Mus musculus; test: Effect of oral treatment with compound on HSV-2 induced mortality in mice at 20 mg/kg dose; format: functional

Worked cases, p-value for mean survival time increase given:
Query block: Which p-value for mean survival time increase value belongs to Nc1nc2c(ncn2COC(CO)CO)c(=O)[nH]1 ?
Result block: <0.01

Query block: Similarly, Nc1nc(O)c2ncn(COC(COP(=O)(O)O)COP(=O)(O)O)c2n1 ?
Result block: <0.02

Query block: Similarly, Nc1nc2c(ncn2COC2COP(=O)(O)OC2)c(=O)[nH]1 (centres undefined) ?
Result block: <0.01

More entries:
Query block: Which p-value for mean survival time increase value belongs to Nc1nc(O)c2ncn(COC(CO)COP(=O)(O)O)c2n1 (centres undefined) ?
Result block: <0.001

###

system: Vero; assay: In vitro anticellular activity was measured against vero cells; type: functional; conditions: Chlorocebus sabaeus, read-out: ID50 (the source's name)
Measured pIC50 by item
Scale: pIC50 equals -log10([C]), with [C] in mol/L.

Query block: // map Nc1nc2c(ncn2COC2COP(=O)(O)OC2)c(=O)[nH]1 (stereo not given) to recorded pIC50 (system: Vero)
Result block: 4.40

Query block: Similarly, Nc1nc2c(ncn2COC(CO)CO)c(=O)[nH]1 [GANCICLOVIR] ?
Result block: 3.35

Query block: Similarly, Nc1nc(O)c2ncn(COC(COP(=O)(O)O)COP(=O)(O)O)c2n1 ?
Result block: 3.10

More entries:
Query block: // map Nc1nc(O)c2ncn(COC(CO)COP(=O)(O)O)c2n1 (stereo not given) to recorded pIC50 (system: Vero)
Result block: 3.15
